Let's look at some compounds and their measured pIC50.
tested.system: Cezanne 1 (Homo sapiens (Human), UniProt Q6GQQ9)
Sequence (Q6GQQ9 whole entry): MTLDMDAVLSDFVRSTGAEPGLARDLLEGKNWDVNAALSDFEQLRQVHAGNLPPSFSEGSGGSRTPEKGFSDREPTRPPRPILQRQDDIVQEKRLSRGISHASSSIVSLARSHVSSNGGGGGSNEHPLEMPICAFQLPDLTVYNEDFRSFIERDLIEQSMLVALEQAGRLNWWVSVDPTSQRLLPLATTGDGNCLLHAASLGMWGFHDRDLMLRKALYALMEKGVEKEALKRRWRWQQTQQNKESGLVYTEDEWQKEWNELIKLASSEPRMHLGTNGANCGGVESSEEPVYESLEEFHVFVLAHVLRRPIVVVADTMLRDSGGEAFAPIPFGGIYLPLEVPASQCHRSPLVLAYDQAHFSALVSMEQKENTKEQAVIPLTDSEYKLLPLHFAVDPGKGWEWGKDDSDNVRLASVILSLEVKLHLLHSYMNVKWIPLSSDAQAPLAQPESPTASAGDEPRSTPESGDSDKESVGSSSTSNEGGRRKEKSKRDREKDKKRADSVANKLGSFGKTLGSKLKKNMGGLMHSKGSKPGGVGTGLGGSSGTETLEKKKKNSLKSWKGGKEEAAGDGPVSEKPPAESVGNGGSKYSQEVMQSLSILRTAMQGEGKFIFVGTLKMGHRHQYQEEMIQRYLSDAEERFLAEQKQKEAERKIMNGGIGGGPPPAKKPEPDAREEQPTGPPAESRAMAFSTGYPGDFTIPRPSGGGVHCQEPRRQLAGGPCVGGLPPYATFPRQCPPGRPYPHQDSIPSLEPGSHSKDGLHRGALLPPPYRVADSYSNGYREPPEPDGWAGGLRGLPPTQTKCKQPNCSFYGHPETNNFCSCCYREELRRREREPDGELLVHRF
pIC50: −log10 of the molar value.

Solved cases (5 shown):
compound	pIC50
N#CN1CC[C@](F)(C(=O)Nc2cc(-c3cccc(-n4ccnc4)c3)no2)C1	6.00 to 7.00
N#CN1CCC(F)(C(=O)Nc2ccc(Cl)c(C(F)(F)F)c2)C1 (stereo not shown)	5.00 to 6.00
N#CN1CCC(F)(C(=O)Nc2ncc(-c3cccc(-n4ccnc4)c3)s2)C1 (stereo not shown)	6.00 to 7.00
N#CN1CCC(F)(C(=O)Nc2nc3ccc(-c4cn[nH]c4)cc3s2)C1 (stereo not shown)	5.00 to 6.00
N#CN1CC[C@@](F)(C(=O)Nc2cnn(-c3ccccc3)c2)C1	5.00 to 6.00

Using the record for N#CN1CCC(F)(C(=O)Nc2ccc3ncccc3c2)C1 (stereo not shown) , report its pIC50.
5.00 to 6.00

Item: N#CN1CCC(F)(C(=O)Nc2ncc(-c3cccc(C(N)=O)c3)s2)C1 (stereo not shown)
6.00 to 7.00

Item: N#CN1CCC(F)(C(=O)Nc2cnc3ccccc3c2)C1 (stereo not shown)
5.00 to 6.00

Item: N#CN1CC[C@](F)(C(=O)Nc2ncc(-c3ccccc3)s2)C1
6.00 to 7.00

Item: N#CN1CCC(F)(C(=O)Nc2cn(-c3ccccc3)cn2)C1 (stereo not shown)
5.00 to 6.00
